test_target: T1, Bdf1 bromodomain 1 (GST-tagged, WT) (Saccharomyces cerevisiae (strain ATCC …, UniProt P35817))
T1 chain: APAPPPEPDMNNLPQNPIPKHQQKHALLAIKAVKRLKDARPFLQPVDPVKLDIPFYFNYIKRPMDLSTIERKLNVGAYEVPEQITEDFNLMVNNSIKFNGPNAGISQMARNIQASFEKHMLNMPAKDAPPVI
assay_summary: histone peptide array probed with recombinant GST-bromodomain, signal normalised to myc peptide control
Non-standard residues stand in square brackets, D forms with d. Primed or numbered codes have the meaning given here. No end group written: not given here. Me2a″ = asymmetric dimethylarginine (Rme2a); Arg(Me2a) = CN(C)C(=N)NCCC[C@H](N)C(=O)O; Arg(Me2s) = CN=C(NC)NCCC[C@H](N)C(=O)O; pT = C[C@@H](OP(=O)(O)O)[C@H](N)C(=O)O; Me2a = asymmetric dimethyl (on Arg); Lys(Me2) = CN(C)CCCC[C@H](N)C(=O)O; Me2s = symmetric dimethyl (on Arg); pS = N[C@@H](COP(=O)(O)O)C(=O)O; Me3″ = trimethyl lysine (Kme3); Me3 = trimethyl (on Lys)
Label true when binding score >= 0.002; otherwise false.

[[record]]
binder = "AR[pT][Lys(Me2)]QTARKSTGGKAPRKQ"
qualitative_label = "false"

[[record]]
binder = "ARTKQTA[Arg(Me2s)]K(Me)S[pT]GGKAPRKQ"
qualitative_label = "false"

[[record]]
binder = "PRKQLATKAA[Arg(Me2a)]K[pS]APATGG"
qualitative_label = "false"

[[record]]
binder = "ARTKQTARKSTGGKAPRKQ (A Rme2s T Kme1 Q T A Rme2s Kac S T G G K A P R K Q)"
qualitative_label = "true"

[[record]]
binder = "AR(Me2a)TK(Me)QTAR(Me2s)K(Me3)STGGKAPRKQ"
qualitative_label = "true"

[[record]]
binder = "A[Arg(Me2a)]T[Lys(Me2)]QTA[Arg(Me2a)][Lys(Me2)]STGGKAPRKQ"
qualitative_label = "false"

[[record]]
binder = "PRKQLATKAAR(Me2a″)K(Me3″)[pS]APATGG"
qualitative_label = "false"

